# Test system: mouse
# PROTOCOL_DETAILS: Black and White Box test in the mouse (anxiolytic activity)
# Type: in vivo
# CONDITION_SUMMARY: 1.0 mg/kg IP, 5 minutes
REPORTED_ENDPOINT: LIGHT-DARK MOVEMENTS
Please respond with just the number, no unit label.

Illustrative cases are given below, each with its answer.
compound="O=C(CC[C@H](NC(=O)c1cc(Cl)cc(Cl)c1)C(=O)N1CCC2(CCCC2)CC1)N[C@H](Cc1ccccc1)C(=O)O [Compound S-9, reference compound]" measured=18.2
compound=O=C(CC[C@@H](NC(=O)c1cc(Cl)cc(Cl)c1)C(=O)N1CCC2(CCCC2)CC1)N[C@H](Cc1ccccc1)C(=O)O measured=19.9
compound=CN(C(=O)CC[C@@H](NC(=O)c1cc(Cl)cc(Cl)c1)C(=O)N1CCC2(CCCC2)CC1)c1ccccc1C(=O)O measured=19.8

Consider the additional compound presented here.
Incoming: What does the record list as LIGHT-DARK MOVEMENTS for CN1C(=O)CN=C(c2ccccc2)c2cc(Cl)ccc21 [DIAZEPAM, diazepam, reference compound] ?
Outgoing: 19.9

====

# System: mouse
# PROTOCOL_DETAILS: Black and White Box test in the mouse (anxiolytic activity)
# Type: in vivo
# CONDITION_SUMMARY: 1.0 mg/kg IP, 5 minutes
REPORTED_ENDPOINT: LIGHT TIME TOTAL TIME (%)
Number in %, nothing else.

Illustrative cases are given below, each with its answer.
compound="CN1C(=O)CN=C(c2ccccc2)c2cc(Cl)ccc21 [DIAZEPAM, diazepam, reference compound]" study_target=mouse measured=29.3
compound="O=C(CC[C@H](NC(=O)c1cc(Cl)cc(Cl)c1)C(=O)N1CCC2(CCCC2)CC1)N[C@H](Cc1ccccc1)C(=O)O [Compound S-9, reference compound]" study_target=mouse measured=28.5
compound="CN(C(=O)CC[C@@H](NC(=O)c1cc(Cl)cc(Cl)c1)C(=O)N1CCC2(CCCC2)CC1)c1ccccc1C(=O)O [Compound 51]" study_target=mouse measured=35.6

Consider the additional compound presented here.
Incoming: # get_value(readout= LIGHT TIME TOTAL TIME, system= mouse) for O=C(CC[C@@H](NC(=O)c1cc(Cl)cc(Cl)c1)C(=O)N1CCC2(CCCC2)CC1)N[C@H](Cc1ccccc1)C(=O)O [Compound 9]
Outgoing: 36.1

====

# STUDY_TARGET: gastrin receptors or type-B cholecystokinin (CCK-B) receptors (Oryctolagus cuniculus, UniProt P46627)
# Construct: Rabbit gastric mucous-membrane cells were prepared by conventional techniques; endogenous in cells; host or cells: freshly isolated rabbit gastric mucosal cells, enriched by elutriation to about 70% parietal cells
# Sequence (P46627 whole entry): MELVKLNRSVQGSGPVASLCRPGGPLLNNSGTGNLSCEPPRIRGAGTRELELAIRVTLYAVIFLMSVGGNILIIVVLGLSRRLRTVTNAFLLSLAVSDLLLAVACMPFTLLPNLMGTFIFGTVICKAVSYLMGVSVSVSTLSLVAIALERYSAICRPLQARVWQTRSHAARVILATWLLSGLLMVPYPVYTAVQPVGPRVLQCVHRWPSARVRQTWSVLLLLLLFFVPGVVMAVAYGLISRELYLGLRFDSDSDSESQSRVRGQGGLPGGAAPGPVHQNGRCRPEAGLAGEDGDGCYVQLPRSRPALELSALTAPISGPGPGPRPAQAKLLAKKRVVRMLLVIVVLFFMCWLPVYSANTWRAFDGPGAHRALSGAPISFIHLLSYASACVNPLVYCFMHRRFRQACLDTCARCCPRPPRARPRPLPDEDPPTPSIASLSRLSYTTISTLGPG
# PROTOCOL_DETAILS: Inhibition of the gastrin-induced increase of cytosolic calcium in rabbit gastric mucous-membrane cells (Fura 2)
# Assay type: cell-based
# CONDITION_SUMMARY: binding values taken from Table 3
Label false (0) if Ratio IC50 Binding cortex / IC50 (gastric mucous cells) falls below 6; label true (1) in every other case.

molecule="O=C(CC[C@@H](NC(=O)c1cc(Cl)cc(Cl)c1)C(=O)N1CCC2(CCCC2)CC1)NC(Cc1ccccc1)C(=O)O (stereo partly drawn) [Compound 8]" qualitative_label="false (0)"
molecule="CN(C(=O)CC[C@@H](NC(=O)c1cc(Cl)cc(Cl)c1)C(=O)N1CCC2(CCCC2)CC1)[C@H](Cc1ccccc1)C(=O)O [Compound 12]" qualitative_label="false (0)"
molecule="O=C(CC[C@@H](NC(=O)c1cc(Cl)cc(Cl)c1)C(=O)N1CCC2(CCCC2)CC1)N[C@H](CC1CCCCC1)C(=O)O [Compound 28]" qualitative_label="true (1)"

Incoming: Has CC1(C)CCC(NC(=O)[C@@H](CCC(=O)O)NC(=O)CC[C@@H](NC(=O)c2cc(Cl)cc(Cl)c2)C(=O)N2CCC3(CCCC3)CC2)CC1 [Compound 35] a recorded Ratio IC50 Binding cortex / IC50 (gastric mucous cells) greater than or equal to 6?
Outgoing: true (1)

Incoming: Has O=C(CC[C@@H](NC(=O)c1cc(Cl)cc(Cl)c1)C(=O)N1CCC2(CCCC2)CC1)N[C@H](Cc1ccc2ccccc2c1)C(=O)O [Compound 24] a recorded Ratio IC50 Binding cortex / IC50 (gastric mucous cells) greater than or equal to 6?
Outgoing: false (0)

Incoming: Has CC(C)CC(NC(=O)CC[C@@H](NC(=O)c1cc(Cl)cc(Cl)c1)C(=O)N1CCC2(CCCC2)CC1)C(=O)O (stereo partly drawn) [Compound 6] a recorded Ratio IC50 Binding cortex / IC50 (gastric mucous cells) greater than or equal to 6?
Outgoing: true (1)

Reference for the values: patent US5962502A
